Taken from patent US11208405B2.

Counter-ions that a name gives are not always drawn.
As a worked illustration, we turn to GI50 data collected for HCT116 cells.
quantity_name: GI50 (µM)

CN(C)CCNC(=O)c1ccc(-c2ccc(-c3ccc(Cl)cc3)n2-c2cnccc2C(F)(F)F)cc1 [Example 49, hydrochloride]	0.05

[a] CN(C)CCNC(=O)C(C)(C)c1ccc(-c2ccc(-c3ccc(Cl)cc3)n2-c2ccccc2C(F)(F)F)cc1 [Example 107, hydrochloride]
[b] CN(C)CCNC(=O)c1ccc(-c2ccc(-c3cccc(Cl)c3)n2-c2ccccc2C(F)(F)F)cc1 [Example 72, hydrochloride]
[c] CN(C)CCNC(=O)c1ccc(-c2ccc(-c3ccccc3)n2-c2ccccc2C(F)(F)F)cc1Cl [Example 39, hydrochloride]
[d] CN(C)Cc1cccc(-c2ccc(-c3ccc(Br)cc3)n2-c2ccccc2C(F)(F)F)c1 [Example 7, Hydrochloride]
[e] CN(C)CCN(C)C(=O)c1ccc(-c2ccc(-c3ccc(Cl)cc3)n2-c2ccccc2C(F)(F)F)cc1 [Example 83, hydrochloride]
Task for the reader: rank each entry by its GI50, from the minimum upward. // list labels; follow requested order e, a, c, d, b
(e: 0.06 µM, a: 0.16 µM, c: 0.35 µM, d: 1.06 µM, b: 1.73 µM)

[1] CN(C)[C@H]1CCN(C(=O)c2cccc(-c3ccc(-c4ccc(Br)cc4)n3-c3ccccc3C(F)(F)F)c2)C1 [Example 55, hydrochloride]
[2] CN(C)CCNC(=O)c1ccc(-c2ccc(-c3ccc(F)cc3F)n2-c2ccccc2C(F)(F)F)cc1 [Example 43]
Compare GI50: is it lower for 1 or for 2 ? Indicate your choice by writing its label. 2
(2: 0.2 µM, 1: 2.25 µM)

[I] CN1CCN(Cc2ccc(-c3ccc(-c4ccc(Br)cc4)n3-c3ccccc3C(F)(F)F)cc2)CC1 [Example 48, hydrochloride]
[II] CN(C)[C@@H]1CCN(C(=O)c2cccc(-c3ccc(-c4ccc(Br)cc4)n3-c3ccccc3C(F)(F)F)c2)C1 [Example 54, hydrochloride]
Compare GI50: is it lower for I or for II ? Indicate your choice by writing its label. I
(I: 0.41 µM, II: 1.38 µM)

[1] CN(C)CCNC(=O)c1ccc(Cl)c(-c2ccc(-c3ccc(Br)cc3)n2-c2ccccc2C(F)(F)F)c1 [Example 15, hydrochloride]
[2] COCCNC(=O)c1ccc(-c2ccc(-c3ccc(Cl)cc3)n2-c2ccccc2C(F)(F)F)cc1 [Example 86]
I'd appreciate it if you could identify which of 1 and 2 has the greater GI50. Indicate your choice by writing its label. 1
(1: 2.18 µM, 2: 0.34 µM)
